- EXPERIMENT_SUMMARY: soluble on expression in E. coli; label from the status in PepcDB or PDB records
QUANTITY_KIND: soluble on expression in E. coli

Worked cases, answers included:
# input sequence: `MSLPSERELGKELEVSRLTVRKAIQELEQKGILYKIQGKGTFVNDRKKAGEHGNKIGVISHLYKGVFMEILEGIEEGLESESYEYLLRNSQNDYKKEENIIQAMKEEGVSGFIISPVEDQKDSNVIFNLKAEGYPIVLIDRKLNYCETDCVLSDNIDGGFKATEYLIKLGHSRIAFLTYEFRKTSSVRDRIKGYRYALKLNQLELDERLLFSYNKDLSREEKNKILYNFIKENKPTAIIGVHNDVALDVVKMCRANNISIPEDISIICFDNTDIVRHLEVPLTTLVQDARKIGYDAAKLIVKKINSQEETGIMNQIYHPVKLIERNSCKSILQKNEGHHHHHH` ; wanted: its soluble on expression in E. coli
soluble

Also `MDNLLIQVTGKKRVVLFSPRDAQYLYLKGTKSEVLNIDNPDLAKYPLFSKARRYECSLEAGDVLFIPALWFHNVISEEFGVGVNIFWKHLPSECYDKTDTYGNKDPTAASRAAQILDRALKTLAELPEEYRDFYARRMVLHIQDKAYSKNSE` , if possible.
not soluble

Now the same for `GMTTKDISRPVCILGLGLIGGSLLRDLHAANHSVFGYNRSRSGAKSAVDEGFDVSADLEATLQRAAAEDALIVLAVPMTAIDSLLDAVHTHAPNNGFTDVVSVKTAVYDAVKARNMQHRYVGSHPMAGTANSGWSASMDGLFKRAVWVVTFDQLFDGTDINSTWISIWKDVVQMALAVGAEVVPSRVGPHDAAAARVSHLTHILAETLAIVGDNGGALSLSLAAGSYRDSTRVAGTDPGLVRAMCESNAGPLVKALDEALAILHEAREGLTAEQPNIEQLADNGYRSRIRYEARSGQRRAKESVSPTITSSRPVLRLHPGTPNWEKQLIHAETLGARIEVF`
soluble

// repeat for `MFQLSVQDIHPGQQAGNKEEAIRQVAAALVSAGNVADGYVNGMLAREQQTSTFLGNGIAIPHGTTDTRDQVLKTGVQVFQFPQGVTWGEGQTAYVAIGIAASSDEHLGLLRQLTHVLSDDAVAAQLQSATTAEELRALLMGEKQSEALKLDNETLSLDVAASDLLTLQALNAARLKEVGAVDAAFVSHVINDTPLNLGQGVWLNDSAEGNLRSAVAVSRAANAFTRDEQPVSLLVTVAMADEQPTAVLNRLSKLLLDKKAEHLLKADAATVLALLTSDDAIAEDVLSAEFVVRNEHGLHARPGTMLVNTIKQFSSDITVTNLDGSGKPANGRSLMKVVALGVKKGHRLRFTAQGEDAQQALDAIGEAIAAGLGEGA` and report
not soluble

Try the sequence `MDEFEMIKRNTSEIISEEELREVLKKDEKSAIIGFEPSGKIHLGHYLQIKKMIDLQNAGFDIIILLADLFAYLNQKGELDEIRKIGDYNKKVFEAMGLKAKYVYGSSFMLDKDYTLNVYRLALKTTLKRARRSMELIAREDENPKVAEVIYPIMQVNPLHYEGVDVAVGGMEQRKIHMLARELLPKKVVCIHNPVLTGLDGEGKMSSSKGNFIAVDDSPEEIRAKIKKAYCPAGVVEGNPIMEIAKYFLEYPLTIKRPEKFGGDLTVNSYEELESLFKNKELHPMDLKNAVAEELIKILEPIRKRLLEHHHHHH`
soluble

Try `MGLHPTLGEHGERELLALQKVDYPKGDVKAQAKHTARTLLECYNCHSLGEYNTLLNLYNITVYEVRGSVDGKEYHGIMYGALDDNGQQVGTPFKSSKFGKVFGYEALQKKFAASAEKVKKDNLPERLEHHHHHH` next.
soluble

Cool, now `GNDEIGELALAFNNLSKRVQEAQANTESEKRRLDSVITHMSDGIIATDRRGRIRIVNDMALKMLGMAKEDIIGYYMLSVLSLEDEFKLEEIQENNDSFLLDLNEEEGLIARVNFSTIVQETGFVTGYIAVLHD`
not soluble

What about this sequence? `MGSDKIHHHHHHMTDPDIGDSQDHANIISILQDLGLTENESRVYILLLEYGSMAAQDILRYLPLRQPQLYDITSSLERKGFINVLLGRPKKYEAIDPEAVVEAREQILSRNRRYFLTWANRAMETRRETTALINAKNIRSVINNSIDLINETEKTLEIETTQELFAYIREPILRKIREGCRVEILFFGTDVDLEKVQNQFTDLDVDVRYVSPGQFFTVISDEKNSVFMPRSVAMNTDIERYGYVIRDKDMSWFITHNFFVGWYRGNRIKDHSVVAPYTYHSQRILISDLKRIFDQKGRVHGVLEGIVRSTGDRFTSEGEISEINSDTEIINFVFKTDRGEYTVGGYDSQIEDIVMKSFTVASFG`
not soluble

New cases:
Given the entry `MSTPSVHCLKPSPLHLPSGIPGSPGRQRRHTLPANEFRCLTPEDAAGVFEIEREAFISVSGNCPLNLDEVQHFLTLCPELSLGWFVEGRLVAFIIGSLWDEERLTQESLALHRPRGHSAHLHALAVHRSFRQQGKGSVLLWRYLHHVGAQPAVRRAVLMCEDALVPFYQRFGFHPAGPCAIVVGSLTFTEMHCSLRGHAALRRNSDR` , report its measured soluble on expression in E. coli.
soluble

Again, but for `MSLPRFSNVSYEQYWALREQSDEWLEYIDGAVYMAPSPSIKHQLVSSNLHTELGLYFRGKPCNVFAAPTDIELASDKFPDRKVVIPDLSVICDSKGFTETKYVGVPTLIVEILSPSNQAHDLVTKFNLYMAYGVKEYWIVNPMKEAITVYTLNEEGLYEQADVKAGTGVVQSACFPRLEVALEDVFR`
not soluble

Same question, `MAHHHHHHMLGACYPIPSGISLSLSRSRAYDVVYHYTRAAHIRLRLHGSGHSGEHMAAAEQRTCRPHLLWRLDGRPHADSIGHGLADDTRLCARVDLRRMLVACPRWGQSRAFIPQSRRLRALPRDGLRACLRGAVLPSGLATVTMVADDTT` this time
not soluble

Try `GHMAGGTKRLPRAVREQQMLDAAVDVFSDRGFHETSMDAIAAKAEISKPMLYLYYGSKDELFAACIQREGLRFVEALAPAGDPGLSPREQLRRALEGFLGFVGKHRKSWMVLYRQAMGQQAFVGSVQSSRDRLIELTAHLLESSTKDPEPGQDFELIAIALVGAGEAVADRVAGGEIEVDAAADLLESLAWRGLAGKKKPEGS` next.
soluble
